Task for the reader: assign each of the following compounds its reported inhibition.
Biological target: Protein deacetylase HDAC6 (Homo sapiens)
Sequence (whole entry): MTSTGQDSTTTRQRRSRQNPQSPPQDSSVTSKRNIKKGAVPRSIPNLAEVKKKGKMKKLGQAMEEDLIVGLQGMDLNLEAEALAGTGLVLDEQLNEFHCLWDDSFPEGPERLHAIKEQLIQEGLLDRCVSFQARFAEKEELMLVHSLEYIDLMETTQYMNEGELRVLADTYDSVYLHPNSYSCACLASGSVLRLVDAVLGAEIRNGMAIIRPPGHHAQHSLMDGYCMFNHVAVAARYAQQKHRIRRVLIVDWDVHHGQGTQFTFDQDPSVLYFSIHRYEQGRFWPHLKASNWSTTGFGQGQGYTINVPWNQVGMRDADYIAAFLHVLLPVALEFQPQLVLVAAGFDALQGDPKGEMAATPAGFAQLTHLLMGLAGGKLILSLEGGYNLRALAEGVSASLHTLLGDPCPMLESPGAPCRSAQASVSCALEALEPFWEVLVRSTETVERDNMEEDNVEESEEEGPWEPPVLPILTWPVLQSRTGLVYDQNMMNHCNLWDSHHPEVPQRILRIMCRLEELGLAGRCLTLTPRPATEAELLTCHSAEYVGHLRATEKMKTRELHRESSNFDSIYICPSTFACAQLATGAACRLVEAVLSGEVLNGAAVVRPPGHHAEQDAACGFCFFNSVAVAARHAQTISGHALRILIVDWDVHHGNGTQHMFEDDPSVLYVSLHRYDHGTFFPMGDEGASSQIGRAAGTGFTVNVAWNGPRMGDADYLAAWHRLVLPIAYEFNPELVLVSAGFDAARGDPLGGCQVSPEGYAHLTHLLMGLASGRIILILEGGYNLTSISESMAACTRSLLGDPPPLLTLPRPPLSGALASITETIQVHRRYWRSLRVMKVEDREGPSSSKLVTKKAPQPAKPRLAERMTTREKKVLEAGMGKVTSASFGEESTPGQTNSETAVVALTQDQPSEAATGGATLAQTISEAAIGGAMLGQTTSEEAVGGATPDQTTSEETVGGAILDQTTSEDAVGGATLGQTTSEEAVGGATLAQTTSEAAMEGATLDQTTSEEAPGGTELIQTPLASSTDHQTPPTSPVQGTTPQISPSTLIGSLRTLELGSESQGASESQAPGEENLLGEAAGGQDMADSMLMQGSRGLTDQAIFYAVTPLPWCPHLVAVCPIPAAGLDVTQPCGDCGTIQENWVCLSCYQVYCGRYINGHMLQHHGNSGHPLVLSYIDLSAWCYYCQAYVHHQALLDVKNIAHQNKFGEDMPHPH
Settings: at 10 µM
Among all 5,600 compounds or so, about 150 (2.7%) showed an effect of 50% or more. The list comes from a sample in which strong results are over-represented; it also holds close analogues and randomly drawn compounds. Starred links: 1 amine or outer side, 2 acyl side, 3 side chain; linkers in the order of their positions; H or OH if unused. Positions of bridges follow the written chain, without caps; N, C: chain ends. Non-standard residues stand in square brackets, D forms with d. Residues, ends and D or L forms follow the SMILES beside them. ξ: configuration not given here. *: point of attachment. hTyr(3S-OH,4S-OH,3'-OSO3H) = N[C@H](C(=O)O)[C@H](O)[C@@H](O)c1ccc(O)c(OS(=O)(=O)O)c1; Orn(4R-OH,5R-OH) = O=C([C@H](C[C@@H](O)[C@@H](O)N[*:3])N[*:1])[*:2]; Pro(3S-OH,4S-Me) = C[C@H]1CN[C@H](C(=O)O)[C@H]1O; X1 = CCCCCOc1ccc(-c2cc(-c3ccc(C(=O)*)cc3)no2)cc1; Gln(3R-OH) = NC(=O)C[C@@H](O)[C@H](N)C(=O)O; Hyp = O=C(O)[C@@H]1C[C@@H](O)CN1; ξThr(3R) = C[C@@H](O)C(N)C(=O)O
Please give a number only; it is taken to be in %.

Prompt: Query: inhibition; subject: `CS(=O)(=O)OC[C@H](O)[C@@H](O)COS(C)(=O)=O`
Completion: 2

Prompt: Query: inhibition; subject: `CNC[C@@H]1CC[C@@H](N)[C@H](O[C@H]2[C@H](O)[C@@H](O[C@H]3OC[C@](C)(O)[C@H](NC)[C@H]3O)[C@H](N)C[C@@H]2N)O1`
Completion: -3.43

Prompt: Query: inhibition; subject: CC(=O)SCCC(=O)N1C(C)CCCC1C(=O)O (stereo not drawn)
Completion: 7.82

Prompt: Query: inhibition; subject: CCCCCOc1ccc(-c2cc(-c3ccc(C(=O)N[C@H]4C[C@@H](O)[C@@H](O)NC(=O)[C@@H]5[C@@H](O)[C@@H](C)CN5C(=O)[C@H]([C@H](O)CC(N)=O)NC(=O)[C@H]([C@H](O)[C@@H](O)c5ccc(O)c(OS(=O)(=O)O)c5)NC(=O)[C@@H]5C[C@@H](O)CN5C(=O)C([C@@H](C)O)NC4=O)cc3)no2)cc1 (stereo partly drawn) (X1-[Orn(4R-OH,5R-OH)][ξThr(3R)][Hyp][hTyr(3S-OH,4S-OH,3'-OSO3H)][Gln(3R-OH)][Pro(3S-OH,4S-Me)]; lactam 1-C)
Completion: 4.51

Prompt: Query: inhibition; subject: NC1CCC(N[C@@H]2C[C@H]2c2ccccc2)CC1 (stereo partly drawn)
Completion: -0.23

Prompt: Query: inhibition; subject: `CCOC(=O)C1=C(N)Oc2ccc(Br)cc2[C@H]1[C@H](C#N)C(=O)OCC`
Completion: 13.4

Prompt: Query: inhibition; subject: `O=C(N[C@H](Cc1ccccc1)C(=O)O)c1sc2cc(F)ccc2c1Cl`
Completion: -0.15

Prompt: Query: inhibition; subject: `C=C1/C(=C\C=C2/CCC[C@]3(C)[C@@H]([C@H](C)CCCC(O)(C(F)(F)F)C(F)(F)F)CC[C@@H]23)C[C@@H](O)C[C@@H]1O`
Completion: 4.32

====

Target: Protein deacetylase HDAC6 (Homo sapiens) (UniProt Q9UBN7)
Sequence (whole entry): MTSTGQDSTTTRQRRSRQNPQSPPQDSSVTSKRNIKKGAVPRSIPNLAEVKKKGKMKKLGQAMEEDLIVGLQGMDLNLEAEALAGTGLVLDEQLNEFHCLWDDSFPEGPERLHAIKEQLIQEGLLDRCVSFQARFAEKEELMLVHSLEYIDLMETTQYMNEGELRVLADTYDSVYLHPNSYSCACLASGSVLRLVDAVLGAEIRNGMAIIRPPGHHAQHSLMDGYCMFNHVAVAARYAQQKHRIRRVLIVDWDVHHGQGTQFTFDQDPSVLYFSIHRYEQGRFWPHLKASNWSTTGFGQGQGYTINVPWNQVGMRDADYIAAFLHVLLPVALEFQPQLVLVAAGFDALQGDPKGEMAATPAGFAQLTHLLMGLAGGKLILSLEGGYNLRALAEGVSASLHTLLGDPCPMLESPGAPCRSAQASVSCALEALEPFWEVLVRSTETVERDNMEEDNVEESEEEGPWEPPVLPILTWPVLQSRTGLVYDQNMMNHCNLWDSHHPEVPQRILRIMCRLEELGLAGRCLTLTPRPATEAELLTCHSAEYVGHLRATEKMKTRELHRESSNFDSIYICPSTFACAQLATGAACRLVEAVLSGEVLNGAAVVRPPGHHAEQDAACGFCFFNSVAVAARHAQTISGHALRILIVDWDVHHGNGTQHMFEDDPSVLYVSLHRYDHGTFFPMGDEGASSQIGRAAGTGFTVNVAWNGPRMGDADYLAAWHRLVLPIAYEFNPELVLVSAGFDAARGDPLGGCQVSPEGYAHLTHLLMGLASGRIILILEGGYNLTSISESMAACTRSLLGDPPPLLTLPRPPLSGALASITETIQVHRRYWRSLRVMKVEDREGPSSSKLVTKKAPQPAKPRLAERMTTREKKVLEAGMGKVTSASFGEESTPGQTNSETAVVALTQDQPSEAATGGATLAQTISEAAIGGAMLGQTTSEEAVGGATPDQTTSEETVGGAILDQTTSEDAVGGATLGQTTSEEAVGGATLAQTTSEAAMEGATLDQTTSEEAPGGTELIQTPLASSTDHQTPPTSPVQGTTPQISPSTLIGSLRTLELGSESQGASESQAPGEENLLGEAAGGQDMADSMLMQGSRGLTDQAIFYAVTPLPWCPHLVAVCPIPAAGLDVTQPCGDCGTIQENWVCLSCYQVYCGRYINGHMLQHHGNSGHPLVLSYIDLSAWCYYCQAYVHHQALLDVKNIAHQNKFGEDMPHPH
Conditions: at 10 µM
Among all 5,600 compounds or so, about 150 (2.7%) showed an effect of 50% or more. The entries come from a sample that favours strong results as a whole.
# binarize inhibition: threshold 50% inclusive, high side 1.0, low side 0.0

Prompt: Does inhibition meet or surpass 50% for `CCC(=O)O[C@]1(C(=O)COC(C)=O)CC[C@H]2[C@@H]3C[C@H](C)C4=CC(=O)C=C[C@]4(C)[C@H]3[C@@H](O)C[C@@]21C` ?
Completion: 0.0

Prompt: Does inhibition meet or surpass 50% for `CCCCC/C=C\C/C=C\CCCCCCCC(=O)NCCCC(=O)O` ?
Completion: 0.0

Prompt: Does inhibition meet or surpass 50% for `O=C(CNC(=O)c1ccc(Cl)cc1)NO` ?
Completion: 0.0

Prompt: Does inhibition meet or surpass 50% for Cn1c(COc2ccc(CC3SC(=O)NC3=O)cc2)nc2ccccc2c1=O (centres undefined) ?
Completion: 0.0

Prompt: Does inhibition meet or surpass 50% for `O=C(Nc1ccc(Br)cc1)c1cc(Br)cc(Br)c1O` ?
Completion: 0.0

Prompt: Does inhibition meet or surpass 50% for `CCCSc1ccc2[nH]c(NC(=O)OC)nc2c1` ?
Completion: 0.0

Prompt: Does inhibition meet or surpass 50% for `CN(C)c1ccc(C(=O)NCCCCCCC(=O)NO)cc1` ?
Completion: 1.0

Prompt: Does inhibition meet or surpass 50% for C#CC1(OCC(O)CN2CCN(c3cccc(C(F)(F)F)c3)CC2)CCCCC1 (centres undefined) ?
Completion: 0.0

Prompt: Does inhibition meet or surpass 50% for `CN(C)c1nc(N)c(C(=O)Nc2cccnc2)nc1Cl` ?
Completion: 1.0

Prompt: Does inhibition meet or surpass 50% for `O=C(/C=C/c1ccc2ccccc2n1)c1ccncc1` ?
Completion: 1.0

Prompt: Does inhibition meet or surpass 50% for `NC[C@H]1O[C@H](O[C@H]2[C@H](O)[C@@H](O[C@H]3O[C@H](CO)[C@@H](O)[C@H](N)[C@H]3O)[C@H](N)C[C@@H]2N)[C@H](N)C[C@@H]1O` ?
Completion: 0.0

Prompt: Does inhibition meet or surpass 50% for `COc1ccccc1OC(=O)c1ccccc1OC(C)=O` ?
Completion: 0.0

Prompt: Does inhibition meet or surpass 50% for CCC[S+]([O-])c1ccc2[nH]c(NC(=O)OC)nc2c1 (centres undefined) ?
Completion: 1.0

Prompt: Does inhibition meet or surpass 50% for `Nc1ncnc2c1c(-c1cccc(OCc3ccccc3)c1)cn2[C@H]1C[C@H](CN2CCCC2)C1` ?
Completion: 0.0

Prompt: Does inhibition meet or surpass 50% for Cc1c(NC(=O)c2cc3c(s2)CCCC3)cccc1-c1cn(C)c(=O)c(Nc2ccc(C3C(=O)N(C)CCN3C)cc2)n1 (racemic) ?
Completion: 0.0

Prompt: Does inhibition meet or surpass 50% for `CN1C(=O)N(c2cc(Cl)cc(Cl)c2)C(=O)[C@@]1(C)Cc1ccc(Br)cc1` ?
Completion: 0.0

Prompt: Does inhibition meet or surpass 50% for `CC(C)(C)c1ccc(-c2nc3ccccc3[nH]2)cc1` ?
Completion: 1.0

Prompt: Does inhibition meet or surpass 50% for `CCCCCCCCC(=O)NCc1ccc(O)c(OC)c1` ?
Completion: 1.0

Prompt: Does inhibition meet or surpass 50% for `NC[C@@H]1O[C@H](O[C@H]2[C@@H](O)[C@H](O[C@@H]3[C@@H](O)[C@H](N)C[C@H](N)[C@H]3O[C@H]3O[C@H](CO)[C@@H](O)[C@H](O)[C@H]3N)O[C@@H]2CO)[C@H](N)[C@@H](O)[C@@H]1O` ?
Completion: 1.0

Prompt: Does inhibition meet or surpass 50% for `CC(C)CCC[C@@H](C)[C@H]1CC[C@H]2[C@@H]3CCC4=CC(=NO)CC[C@]4(C)[C@H]3CC[C@]12C` ?
Completion: 0.0

Prompt: Does inhibition meet or surpass 50% for `C[C@H](Nc1cc(NS(=O)(=O)N2CCC2)nc(SCc2cccc(F)c2F)n1)[C@@H](O)CO` ?
Completion: 0.0

Prompt: Does inhibition meet or surpass 50% for `COCc1nnc(N2CC(Oc3ccc(F)cc3Cl)C2)n1-c1ccc(OC)nc1` ?
Completion: 0.0

Prompt: Does inhibition meet or surpass 50% for `O=C(NNc1ccccc1)c1ccncc1` ?
Completion: 0.0

Prompt: Does inhibition meet or surpass 50% for `CN(C)c1cc(CNCC(C)(C)C)c(O)c2c1C[C@H]1C[C@H]3[C@H](N(C)C)C(O)=C(C(N)=O)C(=O)[C@@]3(O)C(O)=C1C2=O` ?
Completion: 0.0

Prompt: Does inhibition meet or surpass 50% for `Cc1nc2cnc3ccc(C#Cc4cccnc4)cc3c2n1-c1ccc(C(C)(C)C#N)cc1` ?
Completion: 0.0

Prompt: Does inhibition meet or surpass 50% for `CC[C@H](NC(=O)c1c(O)c(-c2ccccc2)nc2ccccc12)c1ccccc1` ?
Completion: 0.0

Prompt: Does inhibition meet or surpass 50% for `O=C(CCCS)NC1CCN(C(=O)COc2ccc(Cl)cc2Cl)CC1` ?
Completion: 0.0

Prompt: Does inhibition meet or surpass 50% for `CNC(=O)c1ccccc1Nc1nc(Nc2ccc3c(c2OC)CCC[C@H](N2CCN(CCO)CC2)C3)ncc1Cl` ?
Completion: 1.0

Prompt: Does inhibition meet or surpass 50% for `N=C(N)Nc1ccc(C(=O)Oc2ccc3cc(C(=N)N)ccc3c2)cc1` ?
Completion: 1.0

Prompt: Does inhibition meet or surpass 50% for `CN1CCN(c2ccc3[nH]c(-c4ccc5[nH]c(-c6ccc(O)cc6)nc5c4)nc3c2)CC1` ?
Completion: 0.0

Prompt: Does inhibition meet or surpass 50% for `CN1CCN(Cc2ccc(Nc3ncc(Cl)c(Nc4ccccc4S(=O)(=O)N(C)C)n3)cc2)CC1` ?
Completion: 0.0

Prompt: Does inhibition meet or surpass 50% for `COCCOc1cnc2ccn([C@H](C)c3nnc4c(F)cc(-c5cnn(C)c5)cn34)c(=O)c2c1` ?
Completion: 0.0

Prompt: Does inhibition meet or surpass 50% for `Cc1nc2ccc(-n3ncc(C(=O)c4cc5ccccc5[nH]4)c3N)cc2[nH]1` ?
Completion: 1.0

Prompt: Does inhibition meet or surpass 50% for `O=C(O)c1cc(/N=N/c2ccc(O)c(C(=O)O)c2)ccc1O` ?
Completion: 1.0

Prompt: Does inhibition meet or surpass 50% for `C=C1C(=O)O[C@@H]2[C@H]3C(C)=CC[C@@]34O[C@@]4(C)CC[C@@H]12` ?
Completion: 0.0

Prompt: Does inhibition meet or surpass 50% for `CC(=O)Nc1ccc(OC(C)=O)cc1` ?
Completion: 0.0

Prompt: Does inhibition meet or surpass 50% for `Cc1oc2ccccc2c1CNC(=O)NCc1cccs1` ?
Completion: 0.0
